- Study Target: T1, Bdf1 bromodomain 1 (GST-tagged, WT) (Saccharomyces cerevisiae (strain ATCC …, UniProt P35817))
- T1 chain: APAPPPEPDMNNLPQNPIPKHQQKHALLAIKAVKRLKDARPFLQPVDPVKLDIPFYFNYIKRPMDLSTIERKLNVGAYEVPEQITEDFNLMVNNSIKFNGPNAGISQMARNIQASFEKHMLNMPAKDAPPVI
- Test Name: histone peptide array probed with recombinant GST-bromodomain, signal normalised to myc peptide control
Non-standard residues stand in square brackets, D forms with d. No end group written: not given here. Arg(Me2a) = CN(C)C(=N)NCCC[C@H](N)C(=O)O; Lys(Me2) = CN(C)CCCC[C@H](N)C(=O)O
Readout Type: binding score
No unit in the answer, only the number.

PRKQLATKAAR[Lys(Me2)]SAPATGG has a reported binding score of 0.01

// sample A[Arg(Me2a)]TK(Me)QTARKSTGGKAPRKQ [H3 1-19] , its binding score was 0

Given item PRKQLATKAARK(Ac)SAPATGG , the value recorded as its binding score is 0

In plain terms, SGRGKGGKGLGKGGAKRHR (pS G Rme2a G K G G K G L G K G G A K R H R) [H4 1-19] has a documented binding score of 0

Value of binding score reported for the binder RKSAPATGGVKKPHRYRPG (R K S A P A T G G V Kme3 K P H R Y R P G) [H3 26-45] is 0
